# study_target: RAC-alpha serine/threonine-protein kinase (Homo sapiens)
# Sequence (P31749 whole entry): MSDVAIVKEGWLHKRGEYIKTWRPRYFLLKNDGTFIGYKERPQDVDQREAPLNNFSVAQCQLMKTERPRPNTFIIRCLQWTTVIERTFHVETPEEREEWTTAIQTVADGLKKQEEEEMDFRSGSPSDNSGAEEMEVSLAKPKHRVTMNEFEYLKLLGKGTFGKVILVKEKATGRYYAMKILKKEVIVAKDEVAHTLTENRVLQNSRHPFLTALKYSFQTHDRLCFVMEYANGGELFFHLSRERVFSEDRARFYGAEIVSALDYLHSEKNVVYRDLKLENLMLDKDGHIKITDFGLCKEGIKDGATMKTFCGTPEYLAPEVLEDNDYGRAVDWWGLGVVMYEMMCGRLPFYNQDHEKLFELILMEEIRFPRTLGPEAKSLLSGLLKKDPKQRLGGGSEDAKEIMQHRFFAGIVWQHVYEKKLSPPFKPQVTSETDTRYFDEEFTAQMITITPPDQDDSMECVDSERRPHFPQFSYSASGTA
# assay_name: Inhibition of PKB at 100 uM by radioactive kinase assay relative to control
Square brackets hold non-standard residues; d marks the D form. Peptide text beside a SMILES is read from it. Gly(N-4-hydroxybenzyl) = O=C(O)CNCc1ccc(O)cc1; hLeu = CC(C)CC[C@H](N)C(=O)O; Nva = CCC[C@H](N)C(=O)O; Dap = NC[C@H](N)C(=O)O
Could you please report measured inhibition for the items listed next?
Give bare numbers, in %.

Guide cases for inhibition, answers given:
{"molecule": "CCC[C@H](NC(=O)[C@H](CCCNC(=N)N)NC(=O)[C@@H]1CCCN1C(=O)[C@H](CCCNC(=N)N)NC(C)=O)C(=O)N(CC(=O)N[C@@H](CN)C(=O)N[C@@H](CCC(C)C)C(N)=O)Cc1ccc(O)cc1 (Ac-RPR[Nva][Gly(N-4-hydroxybenzyl)][Dap][hLeu]-NH2)", "u": "%", "inhibition": 49}
{"molecule": "CCC[C@H](NC(=O)[C@H](CCCNC(=N)N)NC(=O)[C@@H]1CCCN1C(=O)[C@@H](N)CCCNC(=N)N)C(=O)N[C@@H](Cc1ccc(O)cc1)C(=O)N(C)[C@@H](CN)C(=O)N[C@@H](CCC(C)C)C(=O)O (HELM PEPTIDE1{R.P.R.[Nva].Y.[CN([C@@H](CN)C(=O)[*:2])[*:1]].[CC(C)CC[C@H](N[*:1])C(=O)O]}$$$$V2.0)", "u": "%", "inhibition": 0}

Turning to the following molecule.
Please give the measured inhibition for this molecule: CCC[C@H](NC(=O)[C@H](CCCNC(=N)N)NC(=O)[C@@H]1CCCN1C(=O)[C@H](CCCNC(=N)N)NC(C)=O)C(=O)N[C@@H](Cc1ccc(O)cc1)C(=O)N[C@@H](CN)C(=O)N(CC(=O)O)CC(C)CC (stereo partly drawn) (HELM PEPTIDE1{[ac].R.P.R.[Nva].Y.[NC[C@H](N[*:1])C(=O)[*:2]].[CCC(C)CN(CC(=O)O)[*:1]]}$$$$V2.0)
4
